Cited source for all entries: paper PMC9599461

Below is a list of entries, each paired with its recorded Clint ± SEM value.
biological target: UniProtKB O15245; test: Stereoselective uptake into OCT1-overexpressing HEK293 cells; settings: OCT1; quotient of vmax over Km;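 note: enantiomers quantified inside cells by chiral HPLC-MS/MS, uptake normalized to total protein from bicinchoninic acid assay, substrates applied in HBSS+ buffer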
Sequence (O15245 whole entry): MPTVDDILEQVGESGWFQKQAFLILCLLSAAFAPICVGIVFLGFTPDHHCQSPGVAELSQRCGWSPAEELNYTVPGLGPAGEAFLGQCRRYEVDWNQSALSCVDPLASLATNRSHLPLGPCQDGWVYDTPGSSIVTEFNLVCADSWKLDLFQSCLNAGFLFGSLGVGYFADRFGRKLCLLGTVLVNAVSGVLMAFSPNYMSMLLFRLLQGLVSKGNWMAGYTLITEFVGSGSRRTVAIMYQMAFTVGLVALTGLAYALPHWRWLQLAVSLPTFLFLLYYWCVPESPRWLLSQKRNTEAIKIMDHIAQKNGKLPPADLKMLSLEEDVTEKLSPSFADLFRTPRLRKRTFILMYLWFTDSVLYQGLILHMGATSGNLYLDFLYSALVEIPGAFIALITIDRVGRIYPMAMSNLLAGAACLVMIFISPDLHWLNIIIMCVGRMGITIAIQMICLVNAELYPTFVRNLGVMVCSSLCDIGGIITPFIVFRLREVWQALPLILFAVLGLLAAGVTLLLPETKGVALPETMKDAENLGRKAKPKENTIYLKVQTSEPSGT

Sample answers from the record:
NC[C@@H](O)c1ccccc1 [(S)-Bisnorephedrine]    1.13 mL × g Protein^−1 × min^−1
NC[C@H](O)c1ccc(O)cc1 [(R)-Octopamine]    4.53 mL × g Protein^−1 × min^−1
CNCC(O)c1ccc(O)c(OC)c1 (single isomer, unassigned) [Metanephrine-1, Metanephrine]    8.09 mL × g Protein^−1 × min^−1
CNC[C@@H](O)c1cccc(O)c1 [(S)-Phenylephrine]    8.85 mL × g Protein^−1 × min^−1
CNCC(O)c1ccc(O)c(OC)c1 (single isomer, unassigned) [Metanephrine-2, Metanephrine]    6.97 mL × g Protein^−1 × min^−1
CNC[C@@H](O)c1ccc(O)cc1 [(S)-Synephrine]    12.1 mL × g Protein^−1 × min^−1

Req: Specify Clint ± SEM for CNC[C@H](O)c1cccc(O)c1 [(R)-Phenylephrine] and stop.
Resp: 9.79 mL × g Protein^−1 × min^−1

Req: Answer with the recorded Clint ± SEM of NC[C@@H](O)c1ccc(O)c(O)c1 [(S)-Norepinephrine] only.
Resp: 0.48 ± 0.20 mL × g Protein^−1 × min^−1

Req: Please indicate Clint ± SEM recorded for NC[C@@H](O)c1ccc(O)cc1 [(S)-Octopamine]
Resp: 4.32 mL × g Protein^−1 × min^−1

Req: Report Clint ± SEM, nothing else, for this compound: COc1cc(C(O)CN)ccc1O (single isomer, unassigned) [Normetanephrine-1, Normetanephrine]
Resp: 2.46 mL × g Protein^−1 × min^−1

Req: Output measured Clint ± SEM for this item: NCC(O)c1cccc(O)c1 (single isomer, unassigned) [Norphenylephrine-2, Norphenylephrine]
Resp: 3.84 mL × g Protein^−1 × min^−1

Req: Please supply the value of reported Clint ± SEM for the item CNC[C@H](O)c1ccc(O)cc1 [(R)-Synephrine]
Resp: 21.0 mL × g Protein^−1 × min^−1

Req: Specify reported Clint ± SEM for the compound shown: NCC(O)c1cccc(O)c1 (single isomer, unassigned) [Norphenylephrine-1, Norphenylephrine]
Resp: 4.02 mL × g Protein^−1 × min^−1

---

target: SERT (Homo sapiens, UniProt P31645); experiment: Stereoselective uptake into SERT-overexpressing HEK293 cells; details: SERT; ratio between enantiomers, given as for (S) or for 2;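 note: uptake into HEK293 cells stably expressing human SERT over 2 min, enantiomers measured in cell lysate by chiral HPLC-MS/MS, normalized to total protein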
Sequence (P31645 whole entry): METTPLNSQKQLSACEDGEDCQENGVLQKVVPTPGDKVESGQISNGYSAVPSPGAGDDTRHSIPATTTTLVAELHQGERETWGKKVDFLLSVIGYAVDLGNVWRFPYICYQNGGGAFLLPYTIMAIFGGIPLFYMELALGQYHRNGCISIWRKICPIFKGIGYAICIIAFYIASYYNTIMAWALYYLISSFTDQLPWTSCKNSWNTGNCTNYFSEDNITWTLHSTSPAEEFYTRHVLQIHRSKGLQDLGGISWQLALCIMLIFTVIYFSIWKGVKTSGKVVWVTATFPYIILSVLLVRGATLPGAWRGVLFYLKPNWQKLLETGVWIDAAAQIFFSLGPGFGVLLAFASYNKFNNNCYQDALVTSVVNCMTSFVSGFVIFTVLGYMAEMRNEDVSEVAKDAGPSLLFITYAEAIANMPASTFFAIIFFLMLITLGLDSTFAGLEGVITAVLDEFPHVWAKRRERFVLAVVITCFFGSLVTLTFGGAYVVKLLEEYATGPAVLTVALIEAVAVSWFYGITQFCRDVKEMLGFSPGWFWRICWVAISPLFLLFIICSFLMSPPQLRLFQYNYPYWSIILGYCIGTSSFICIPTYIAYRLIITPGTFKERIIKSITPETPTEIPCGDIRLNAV
reported.property: Stereoselectivity Vmax (fold)
Give just the number in fold; leave the unit off.

As a guide, the following entries are already answered.
CNC[C@H](O)c1ccc(O)cc1 [(R)-Synephrine]    1.35
COc1cc(C(O)CN)ccc1O (single isomer, unassigned) [Normetanephrine-1, Normetanephrine]    1.67
COc1cc(C(O)CN)ccc1O (single isomer, unassigned) [Normetanephrine-2, Normetanephrine]    1.67

Continue with the molecule presented below.
Req: # return Stereoselectivity Vmax for CNC[C@@H](O)c1ccc(O)cc1 [(S)-Synephrine] , test system: SERT (Homo sapiens, UniProt P31645)
Resp: 1.35

---

Reported Vmax ± SEM values for a set of compounds
target: OCT3 (Homo sapiens, UniProt O75751); assay: Stereoselective uptake into OCT3-overexpressing HEK293 cells; conditions: HEK293 cells overexpressing human OCT3; racemic substrate, two minutes; net uptake;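 note: intracellular accumulation in HEK293 cells measured by chiral HPLC-MS/MS after a 2 min substrate exposure at 37 °C, uptake normalized to total protein (bicinchoninic acid assay)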

These solved cases illustrate the format of a correct answer.
NC[C@@H](O)c1ccc(O)c(O)c1 [(S)-Norepinephrine]    3662 ± 299 pmol × mg Protein^−1 × min^−1
CNC[C@@H](O)c1ccc(O)c(O)c1 [(S)-Epinephrine]    5336 ± 502 pmol × mg Protein^−1 × min^−1
NC[C@H](O)c1ccc(O)c(O)c1 [(R)-Norepinephrine]    3683 ± 360 pmol × mg Protein^−1 × min^−1
C[C@@H]1NCCc2cc(O)c(O)cc21 [Salsolinol-2, Salsolinol]    697 pmol × mg Protein^−1 × min^−1
NC[C@@H](O)c1ccccc1 [(S)-Bisnorephedrine]    589 pmol × mg Protein^−1 × min^−1
C[C@@H]1NCCc2cc(O)c(O)cc21 [Salsolinol-1, Salsolinol]    705 pmol × mg Protein^−1 × min^−1

# context switch: different compound, same Vmax ± SEM
Req: Find the measured Vmax ± SEM of NC[C@H](O)c1ccccc1 [(R)-Bisnorephedrine] and report it.
Resp: 662 pmol × mg Protein^−1 × min^−1

---

Reported Clint ± SEM values for the following compounds.
target: OCT2 (Homo sapiens); assay: Stereoselective uptake into OCT2 (wild-type)-overexpressing HEK293 cells; settings: OCT2; quotient of vmax over Km
Sequence (O15244 whole entry S270A): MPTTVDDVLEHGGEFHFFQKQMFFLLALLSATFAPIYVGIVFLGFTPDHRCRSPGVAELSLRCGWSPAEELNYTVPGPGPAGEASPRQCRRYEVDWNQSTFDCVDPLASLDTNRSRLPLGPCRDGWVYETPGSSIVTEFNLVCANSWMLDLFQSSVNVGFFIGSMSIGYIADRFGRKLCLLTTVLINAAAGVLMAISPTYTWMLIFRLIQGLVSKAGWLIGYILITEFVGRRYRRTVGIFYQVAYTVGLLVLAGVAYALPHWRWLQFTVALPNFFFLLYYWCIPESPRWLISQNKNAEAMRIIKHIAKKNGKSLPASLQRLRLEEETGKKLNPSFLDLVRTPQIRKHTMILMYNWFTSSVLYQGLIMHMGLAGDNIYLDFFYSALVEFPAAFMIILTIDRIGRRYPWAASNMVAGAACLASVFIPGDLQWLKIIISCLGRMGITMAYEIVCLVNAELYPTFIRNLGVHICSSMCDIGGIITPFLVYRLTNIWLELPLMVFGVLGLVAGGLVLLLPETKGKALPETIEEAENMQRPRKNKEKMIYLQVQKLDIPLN

// below: answered compounds
CNC[C@H](O)c1cccc(O)c1 [(R)-Phenylephrine]    29.5 mL × g Protein^−1 × min^−1
NC[C@@H](O)c1ccc(O)cc1 [(S)-Octopamine]    30.2 mL × g Protein^−1 × min^−1
COc1cc(C(O)CN)ccc1O (single isomer, unassigned) [Normetanephrine-1, Normetanephrine]    9.24 mL × g Protein^−1 × min^−1
CNC[C@@H](O)c1ccc(O)cc1 [(S)-Synephrine]    24.8 mL × g Protein^−1 × min^−1
NC[C@H](O)c1ccc(O)cc1 [(R)-Octopamine]    39.6 mL × g Protein^−1 × min^−1
NC[C@H](O)c1ccccc1 [(R)-Bisnorephedrine]    22.6 mL × g Protein^−1 × min^−1
COc1cc(C(O)CN)ccc1O (single isomer, unassigned) [Normetanephrine-2, Normetanephrine]    5.92 mL × g Protein^−1 × min^−1
CNCC(O)c1ccc(O)c(OC)c1 (single isomer, unassigned) [Metanephrine-2, Metanephrine]    7.75 mL × g Protein^−1 × min^−1

Next compound, Clint ± SEM to be filled in.
Req: Supply recorded Clint ± SEM for C[C@@H]1NCCc2cc(O)c(O)cc21 [Salsolinol-1, Salsolinol] here.
Resp: 40.9 mL × g Protein^−1 × min^−1

---

molecular target: DAT (Homo sapiens, UniProt Q01959); test: Stereoselective uptake into DAT-overexpressing HEK293 cells; settings: DAT; result in words;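 note: intracellular accumulation measured by chiral HPLC-MS/MS in stably transfected HEK293 cells, normalized to total protein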
Sequence (Q01959 whole entry): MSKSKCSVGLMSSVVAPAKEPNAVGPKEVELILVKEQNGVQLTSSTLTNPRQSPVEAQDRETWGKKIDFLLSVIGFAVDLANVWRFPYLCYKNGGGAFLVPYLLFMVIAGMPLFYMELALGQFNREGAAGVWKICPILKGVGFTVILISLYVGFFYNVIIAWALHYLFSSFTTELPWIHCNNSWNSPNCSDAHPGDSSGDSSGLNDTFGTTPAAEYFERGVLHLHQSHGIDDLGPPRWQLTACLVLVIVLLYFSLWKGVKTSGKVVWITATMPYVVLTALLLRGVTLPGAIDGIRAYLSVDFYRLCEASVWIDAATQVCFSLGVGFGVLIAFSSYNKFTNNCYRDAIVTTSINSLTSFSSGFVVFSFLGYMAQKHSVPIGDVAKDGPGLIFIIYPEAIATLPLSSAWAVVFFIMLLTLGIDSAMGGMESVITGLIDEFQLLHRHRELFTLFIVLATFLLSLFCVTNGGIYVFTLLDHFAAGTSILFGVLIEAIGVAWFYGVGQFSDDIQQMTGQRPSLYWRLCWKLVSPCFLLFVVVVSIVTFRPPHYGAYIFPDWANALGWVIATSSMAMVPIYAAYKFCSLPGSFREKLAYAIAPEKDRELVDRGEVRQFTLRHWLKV
reported.property: Saturable net uptake

COc1cc(C(O)CN)ccc1O (single isomer, unassigned) [Normetanephrine-1, Normetanephrine]    No saturable net uptake
CNCC(O)c1ccccc1 (stereo not drawn) [Halostachine-2, Halostachine]    No saturable net uptake
CNCC(O)c1ccccc1 (stereo not drawn) [Halostachine-1, Halostachine]    No saturable net uptake

---

target: NET (Homo sapiens, UniProt P23975); assay: Stereoselective uptake into NET-overexpressing HEK293 cells; conditions: HEK293 cells overexpressing human NET; racemic substrate, two minutes; net uptake;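 note: intracellular enantiomers quantified in cell lysates by chiral HPLC-MS/MS after a 2 min substrate incubation, with uptake normalized to total cellular protein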
Sequence (P23975 whole entry): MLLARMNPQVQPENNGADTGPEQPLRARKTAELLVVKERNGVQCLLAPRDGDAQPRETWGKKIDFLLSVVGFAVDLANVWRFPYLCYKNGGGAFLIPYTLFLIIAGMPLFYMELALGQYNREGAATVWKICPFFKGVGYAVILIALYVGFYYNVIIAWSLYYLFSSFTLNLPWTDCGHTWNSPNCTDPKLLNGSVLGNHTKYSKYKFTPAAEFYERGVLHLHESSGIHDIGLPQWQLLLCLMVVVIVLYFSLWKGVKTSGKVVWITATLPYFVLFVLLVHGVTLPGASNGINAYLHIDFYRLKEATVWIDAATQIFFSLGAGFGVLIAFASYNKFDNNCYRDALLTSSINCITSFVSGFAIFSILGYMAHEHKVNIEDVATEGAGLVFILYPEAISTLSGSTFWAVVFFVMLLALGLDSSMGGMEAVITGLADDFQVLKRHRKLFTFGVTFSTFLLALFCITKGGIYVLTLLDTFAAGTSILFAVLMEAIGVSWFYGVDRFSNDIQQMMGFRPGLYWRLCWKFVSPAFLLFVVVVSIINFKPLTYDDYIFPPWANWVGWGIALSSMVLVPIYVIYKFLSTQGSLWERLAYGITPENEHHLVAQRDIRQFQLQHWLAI
reported.property: Vmax ± SEM

// solved cases for Vmax ± SEM follow
NC[C@@H](O)c1ccc(O)c(O)c1 [(S)-Norepinephrine]    362 ± 20 pmol × mg Protein^−1 × min^−1
C[C@@H]1NCCc2cc(O)c(O)cc21 [Salsolinol-2, Salsolinol]    151 pmol × mg Protein^−1 × min^−1
NCC(O)c1cccc(O)c1 (single isomer, unassigned)    531 pmol × mg Protein^−1 × min^−1
CNC[C@@H](O)c1cccc(O)c1 [(S)-Phenylephrine]    220 pmol × mg Protein^−1 × min^−1

Req: Give the reported Vmax ± SEM for this molecule. NC[C@H](O)c1ccc(O)c(O)c1 [(R)-Norepinephrine]
Resp: 262 ± 15 pmol × mg Protein^−1 × min^−1

Req: Provide measured Vmax ± SEM value, entry: CNC[C@H](O)c1cccc(O)c1 [(R)-Phenylephrine]
Resp: 392 pmol × mg Protein^−1 × min^−1

Req: Tell us which Vmax ± SEM value is on record for NC[C@@H](O)c1ccccc1 [(S)-Bisnorephedrine]
Resp: 11.7 pmol × mg Protein^−1 × min^−1

Req: Identify Vmax ± SEM associated with the molecule CNC[C@@H](O)c1ccc(O)c(O)c1 [(S)-Epinephrine]
Resp: 557 ± 22 pmol × mg Protein^−1 × min^−1

Req: Name the recorded Vmax ± SEM of the molecule listed here: C[C@@H]1NCCc2cc(O)c(O)cc21 [Salsolinol-1, Salsolinol]
Resp: 112 pmol × mg Protein^−1 × min^−1

Req: Look up and report measured Vmax ± SEM for this entry: NC[C@H](O)c1ccccc1 [(R)-Bisnorephedrine]
Resp: 9.50 pmol × mg Protein^−1 × min^−1

---

Biological target: OCT3 (Homo sapiens, UniProt O75751)
Sequence (O75751 1-556): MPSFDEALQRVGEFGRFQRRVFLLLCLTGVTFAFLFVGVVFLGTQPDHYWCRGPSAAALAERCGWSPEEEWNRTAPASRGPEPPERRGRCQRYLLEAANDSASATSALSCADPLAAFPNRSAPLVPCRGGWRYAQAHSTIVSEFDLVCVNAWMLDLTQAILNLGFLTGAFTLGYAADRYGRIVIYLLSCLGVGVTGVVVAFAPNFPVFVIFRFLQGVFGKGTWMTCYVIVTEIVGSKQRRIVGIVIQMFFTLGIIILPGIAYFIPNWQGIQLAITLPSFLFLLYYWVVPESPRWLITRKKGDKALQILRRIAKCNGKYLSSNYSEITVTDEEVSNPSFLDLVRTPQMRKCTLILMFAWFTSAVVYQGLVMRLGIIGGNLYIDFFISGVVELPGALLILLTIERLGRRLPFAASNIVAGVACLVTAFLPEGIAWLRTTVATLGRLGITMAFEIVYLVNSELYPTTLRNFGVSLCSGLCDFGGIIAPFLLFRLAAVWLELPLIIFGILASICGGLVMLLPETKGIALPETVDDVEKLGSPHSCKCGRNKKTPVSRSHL
Assay: Stereoselective uptake into OCT3-overexpressing HEK293 cells
Details: OCT3; quotient of vmax over Km
Catalogue of compounds with associated Clint ± SEM

Worked examples follow.
CNC[C@@H](O)c1ccc(O)cc1 [(S)-Synephrine]    27.8 mL × g Protein^−1 × min^−1
CNC[C@H](O)c1ccc(O)cc1 [(R)-Synephrine]    26.3 mL × g Protein^−1 × min^−1
COc1cc(C(O)CN)ccc1O (single isomer, unassigned) [Normetanephrine-1, Normetanephrine]    19.4 mL × g Protein^−1 × min^−1
CNC[C@@H](O)c1cccc(O)c1 [(S)-Phenylephrine]    4.23 mL × g Protein^−1 × min^−1
CNC[C@H](O)c1cccc(O)c1 [(R)-Phenylephrine]    11.8 mL × g Protein^−1 × min^−1

# next compound below
Req: Recall and state the measured Clint ± SEM for C[C@@H]1NCCc2cc(O)c(O)cc21 [Salsolinol-1, Salsolinol] .
Resp: 3.80 mL × g Protein^−1 × min^−1
